- System: NOMO1
- TEST_SUMMARY: cell viability relative to DMSO control; higher = less cytotoxic
- TEST_SETTINGS: RPMI 5 mM glucose + 10% dialyzed FBS; 48 h; 5.12 µM
Reported cell viability is given for each of the following compounds.
OBSERVED_PROPERTY: cell viability (%)

# COMPOUND, OBSERVED_MEASUREMENT
measured = [
    ("CNCC(O)C(O)C(O)C(O)CO.O=C(O)c1ccc(-c2cc3cccnc3c(-c3ccc4nonc4c3)n2)cc1", 111),
    ("CO[C@H]1C[C@@H]2CC[C@@H](C)[C@@](O)(O2)C(=O)C(=O)N2CCCC[C@H]2C(=O)O[C@H]([C@H](C)C[C@@H]2CC[C@@H](OCCO)[C@H](OC)C2)CC(=O)[C@H](C)/C=C(/C)[C@@H](O)[C@@H](OC)C(=O)[C@H](C)C[C@H](C)\\C=C/C=C\\C=C/1C", 76.3),
    ("CC(=O)O[C@@]12CO[C@@H]1C[C@H](O)[C@]3(C)[C@@H]2[C@H](OC(=O)C4=CC=CC=C4)[C@]5(O)C[C@H](OC(=O)C(O)[C@@H](NC(=O)OC(C)(C)C)C6=CC=CC=C6)C(=C(/[C@@H](O)C3=O)C5(C)C)/C (stereo partly specified)", 18.8),
    ("Cc1ncc([N+](=O)[O-])n1CCO", 129),
    ("C[C@@H]1CC[C@@]2(OC1)OC1CC3C4CC=C5CC(O)CCC5(C)C4CCC3(C)C1[C@@H]2C (stereo partly specified)", 88.3),
    ("Cc1ccc(C(=O)c2cc(O)c(O)c([N+](=O)[O-])c2)cc1", 81.8),
]
